Here's a roundup of Ki values tested on Adenosine receptor A3 (Homo sapiens), taken from various published works.
measured endpoint: Ki (nM)

[
  {
    "compound": "Cc1ccc(CNc2nc3nn(C)cc3c3nc(-c4ccco4)nn23)cc1",
    "prefix operator": "=",
    "numeric readout": 1.07
  },
  {
    "compound": "O=C(Nc1ccccc1)Nc1nc(-c2ccccn2)cs1",
    "prefix operator": "=",
    "numeric readout": 5000
  },
  {
    "compound": "COc1cccc2cc(-c3ccc([N+](=O)[O-])cc3)c(=O)oc12",
    "prefix operator": "=",
    "numeric readout": 8020
  },
  {
    "compound": "N=C(N)Nc1nc(OCCc2c[nH]c3ccccc23)nc2c1ncn2[C@@H]1O[C@H](CO)[C@@H](O)[C@H]1O",
    "prefix operator": "=",
    "numeric readout": 90
  },
  {
    "compound": "CC(C)Nc1nc(NCc2ccccc2)n2nc(-c3ccco3)nc2n1",
    "prefix operator": "=",
    "numeric readout": 114
  },
  {
    "compound": "CCCn1c(Br)nc2c(N)ncnc21",
    "prefix operator": "≥",
    "numeric readout": 100000
  },
  {
    "compound": "COc1ccc(CNc2nc3nn(C)cc3c3nc(-c4ccco4)nn23)cc1OC",
    "prefix operator": "=",
    "numeric readout": 21.1
  },
  {
    "compound": "C[C@@H](NC(=O)OC(C)(C)C)C(=O)Nc1nc2ccc(Cl)cc2c2nc(-c3ccco3)nn12",
    "prefix operator": "=",
    "numeric readout": 46.3
  },
  {
    "compound": "O=C(Nc1nc(-c2ccccc2)cn2cc(-c3ccccc3)nc12)c1ccc(F)cc1",
    "prefix operator": "=",
    "numeric readout": 38
  },
  {
    "compound": "CNC(=O)[C@@]12C[C@@H]1[C@@H](n1cnc3c(NC)cc(C#Cc4ccc(Cl)s4)nc31)[C@H](O)[C@@H]2O",
    "prefix operator": "=",
    "numeric readout": 3
  },
  {
    "compound": "CCCNc1nc(-c2cnn(Cc3ccccc3)c2)nc2c1ncn2C1O[C@H](CO)[C@@H](O)[C@H]1O (some centres undefined)",
    "prefix operator": "=",
    "numeric readout": 148
  },
  {
    "compound": "Cn1cc2c(nc(NC(=O)c3ccccc3)n3nc(-c4ccc(Cl)cc4)nc23)n1",
    "prefix operator": "=",
    "numeric readout": 2.82
  },
  {
    "compound": "c1ccc(CNc2nc(NCc3ccccc3)n3nc(-c4ccco4)nc3n2)cc1",
    "prefix operator": "=",
    "numeric readout": 37
  },
  {
    "compound": "COc1ccc(C(=O)Nc2nc(-c3ccccc3)nc3ccccc23)cc1",
    "prefix operator": "=",
    "numeric readout": 27
  },
  {
    "compound": "Cn1c(=O)c2c(nc3n2CCN(CCn2cccc2)C3)n(C)c1=O",
    "prefix operator": ">",
    "numeric readout": 10000
  },
  {
    "compound": "CNC(=O)[C@H]1S[C@@H](n2cnc3c(NCc4cccc(I)c4)ncnc32)[C@H](O)[C@@H]1O",
    "prefix operator": "=",
    "numeric readout": 0.3
  },
  {
    "compound": "CC(C)n1c(Br)nc2c(N)ncnc21",
    "prefix operator": "=",
    "numeric readout": 15000
  },
  {
    "compound": "CCCn1c(=O)c2[nH]c(-c3cnn(Cc4noc(-c5cccc(C(F)(F)F)c5)n4)c3)nc2n(CCC)c1=O",
    "prefix operator": "=",
    "numeric readout": 1800
  },
  {
    "compound": "Cc1ccc(Nc2nc3c(Cl)ncnc3s2)cc1",
    "prefix operator": "=",
    "numeric readout": 4640
  },
  {
    "compound": "c1nc2nc(Nc3ccc(N4CCOCC4)cc3)[nH]c(NC3CCC3)c-2n1",
    "prefix operator": "=",
    "numeric readout": 1810
  },
  {
    "compound": "O=C(c1ccccc1)N(C(=O)c1ccccc1)c1nc2ccccc2c2cn(-c3ccccc3)nc12",
    "prefix operator": "=",
    "numeric readout": 6.1
  },
  {
    "compound": "Nc1ncnc2ncn(CC(O)CO)c12 (centres undefined)",
    "prefix operator": ">",
    "numeric readout": 100000
  },
  {
    "compound": "Nc1nc2c(cnn2CCCc2ccc3c(c2)O[C@@H](C(=O)O)O3)c2nc(-c3ccco3)nn12",
    "prefix operator": ">",
    "numeric readout": 10000
  },
  {
    "compound": "CCOC(=O)c1c(NC(=O)c2sc(Nc3ccc(C)cc3)nc2N(C)C)sc2c1CCCC2",
    "prefix operator": "=",
    "numeric readout": 4710
  },
  {
    "compound": "CCOC(=O)c1cc2c3ccccc3[nH]c(=O)n2n1",
    "prefix operator": "=",
    "numeric readout": 315
  },
  {
    "compound": "CCOC(=O)c1ccc(CCn2ncc3c2nc(N)n2nc(-c4ccco4)nc32)cc1",
    "prefix operator": ">",
    "numeric readout": 10000
  },
  {
    "compound": "Cn1cc2c(nc(N=C(Nc3ccc(Cl)cc3)Nc3ccc(Cl)cc3)n3nc(-c4ccco4)nc23)n1",
    "prefix operator": "=",
    "numeric readout": 71
  },
  {
    "compound": "Cn1cc2c(nc(NC(=O)NC3CCN(C(=O)Nc4ccncc4)CC3)n3nc(-c4ccco4)nc23)n1",
    "prefix operator": "=",
    "numeric readout": 21
  },
  {
    "compound": "CCCn1c(=O)c2[nH]c(-c3cnn(Cc4cc(-c5ccccc5Cl)on4)c3)nc2n(CCC)c1=O",
    "prefix operator": "=",
    "numeric readout": 2300
  },
  {
    "compound": "CCNc1nc(C#Cc2ccc(Cl)s2)nc2c1ncn2[C@H]1[C@H](O)[C@H](O)[C@]2(C(=O)NC)C[C@H]12",
    "prefix operator": "=",
    "numeric readout": 3.8
  },
  {
    "compound": "Cn1cc2c(nc(Cl)n3nc(-c4ccco4)nc23)n1",
    "prefix operator": "=",
    "numeric readout": 367
  },
  {
    "compound": "O=C(Nc1nc2nn(CCc3ccccc3)cc2c2nc(-c3ccccc3)nn12)c1ccccc1",
    "prefix operator": "=",
    "numeric readout": 23.9
  },
  {
    "compound": "CCOC(=O)c1nc(N(C(=O)c2ccccc2)C(=O)c2ccccc2)nc2nn(C)cc12",
    "prefix operator": ">",
    "numeric readout": 100000
  },
  {
    "compound": "CCOC(=O)C(Nc1nc2nn(C)cc2c2nc(-c3ccco3)nn12)c1ccccc1 (racemic)",
    "prefix operator": "=",
    "numeric readout": 0.306
  },
  {
    "compound": "CCOC(=O)c1cnc(NOC)n2nc(-c3ccco3)nc12",
    "prefix operator": "=",
    "numeric readout": 1190
  },
  {
    "compound": "O=c1ccc(Nc2ncc(-c3ccncn3)c(-c3ccco3)n2)cn1CC1CC1",
    "prefix operator": ">",
    "numeric readout": 1000
  },
  {
    "compound": "CCNC(=O)[C@H]1O[C@@H](n2cnc3c(NCCCc4ccccc4)ncnc32)[C@H](O)[C@@H]1O",
    "prefix operator": "=",
    "numeric readout": 4.5
  },
  {
    "compound": "CNC(=O)[C@H]1O[C@@H](n2cnc3c(NCc4cc(Cl)ccc4OCC(=O)N4CCCCC4)ncnc32)[C@H](O)[C@@H]1N",
    "prefix operator": "=",
    "numeric readout": 18
  },
  {
    "compound": "CCNC(=O)[C@H]1O[C@@H](n2cnc3c(N)nc(NCCc4ccc(CCC(=O)N[C@H](Cc5c[nH]c6ccccc56)C(=O)OC)cc4)nc32)[C@H](O)[C@@H]1O",
    "prefix operator": "=",
    "numeric readout": 250
  }
]
